System: Pr. morganii A-15153
measured-parameter: MIC (µg/mL)
Report as a plain number; the unit µg/mL is understood.

Look over these answered cases.
compound	quantity-unit	MIC
CC(C)OP(=O)(CCC1=C(C(=O)O)N2C(=O)CC2S1)OC(C)C (stereo not drawn)	µg/mL	125
CC1=C(C(=O)O)N2C(=O)[C@@H]([C@@H](C)O)[C@H]2S1 (relative stereo)	µg/mL	32
CCCCC1=C(C(=O)[O-])N2C(=O)C[C@H]2S1.[Na+] [Preparation 24, Sodium 2-butylpenem-3-carboxylate]	µg/mL	16
C[C@@H](O)[C@H]1C(=O)N2C(C(=O)O)=C([C@H]3C[C@H](N)C3)S[C@H]12 (relative stereo)	µg/mL	1
O=C([O-])C1=C(CO)S[C@@H]2CC(=O)N12.[Na+]	µg/mL	32
N=C(NCC1=C(C(=O)O)N2C(=O)CC2S1)c1ccccc1 (stereo not drawn)	µg/mL	63
CC1=C(C(=O)O)N2C(=O)[C@H](C(C)(C)O)[C@H]2S1 (relative stereo)	µg/mL	125
Cn1cc(C2=C(C(=O)O)N3C(=O)CC3S2)cn1 (stereo not drawn)	µg/mL	63
O=C(O)C1=C(C2CC2)SC2CC(=O)N12 (stereo not drawn)	µg/mL	16
CC1=C(C(=O)O)N2C(=O)[C@@H](CO)[C@H]2S1 (relative stereo)	µg/mL	125

Now consider the entry below.
Hey, Pr. morganii A-15153 data for C[C@@H](O)[C@H]1C(=O)N2C(C(=O)O)=C(COCCN)S[C@H]12 (relative stereo) : MIC came out at 4

###

Test system: Staph. aureus (Meth-Res) A-15097
Experiment: MIC, tube dilution, Staphylococcus aureus A15097 (Meth-Res)
Type: cell-based
Conditions: Staph. aureus A15097 (Meth-Res); overnight 37° C.
# Minimum Inhibitory Concentration (M.I.C.) per entry
Report only the number, with the unit µg/mL understood.

Some entries whose results are on file:
compound	study-target	observed-measurement
CCC1C(=O)N2C(C(=O)[O-])=C(C)S[C@H]12.[Na+] (stereo partly drawn) [1 (cis)]	Staph. aureus (Meth-Res) A-15097	63
NCCCCCC1=C(C(=O)O)N2C(=O)C[C@H]2S1 [Example 87]	Staph. aureus (Meth-Res) A-15097	32
NCCCCCC1=C(C(=O)O)N2C(=O)C[C@H]2S1 [Example 102]	Staph. aureus (Meth-Res) A-15097	8

The compound O=C(O)C1=C(COc2ccccc2)S[C@@H]2CC(=O)N12 [Example 11, 2-Phenoxymethylpenem-3-carboxylic Acid] on Staph. aureus (Meth-Res) A-15097: Minimum Inhibitory Concentration (M.I.C.) was 1

Record CC1=C(C(=O)O)N2C(=O)[C@@H]([C@@H](C)O)[C@H]2S1 (relative stereo) [Example 58] has Staph. aureus (Meth-Res) A-15097 Minimum Inhibitory Concentration (M.I.C.) equal to 16

Note to self: Minimum Inhibitory Concentration (M.I.C.) of NCCCC1=C(C(=O)O)N2C(=O)CC2S1 (centres unmarked) [Example 22, Sodium 2-Aminopropylpenem-3-carboxylate] with Staph. aureus (Meth-Res) A-15097 was 125

# value of Minimum Inhibitory Concentration (M.I.C.), Staph. aureus (Meth-Res) A-15097, item NCCCC1=C(C(=O)O)N2C(=O)CC2S1 (centres unmarked) [Example 51, 2-(γ-Aminopropyl)penem-3-carboxylic Acid] = 125

Item: CSCC1=C(C(=O)O)N2C(=O)C[C@H]2S1 [Preparation 9] | System: Staph. aureus (Meth-Res) A-15097 | Minimum Inhibitory Concentration (M.I.C.): 8

Measured on Staph. aureus (Meth-Res) A-15097, CCC1C(=O)N2C(C(=O)[O-])=C(C)S[C@H]12.[Na+] (stereo partly drawn) [1 (trans)] has a documented Minimum Inhibitory Concentration (M.I.C.) of 8

The measured Minimum Inhibitory Concentration (M.I.C.) that O=C([O-])C1=C(Cc2ccccc2)S[C@@H]2CC(=O)N12.[Na+] [Example 13, Sodium 2-Benzylpenem-3-carboxylate] showed for Staph. aureus (Meth-Res) A-15097 is 63

For NCC1CC1C1=C(C(=O)O)N2C(=O)CC2S1 (centres unmarked) [Example 79] on Staph. aureus (Meth-Res) A-15097, measured Minimum Inhibitory Concentration (M.I.C.) was 125
